# pIC50 per entry
Assay target: Sodium/glucose cotransporter 2 (Homo sapiens, UniProt P31639)
Sequence (P31639 whole entry): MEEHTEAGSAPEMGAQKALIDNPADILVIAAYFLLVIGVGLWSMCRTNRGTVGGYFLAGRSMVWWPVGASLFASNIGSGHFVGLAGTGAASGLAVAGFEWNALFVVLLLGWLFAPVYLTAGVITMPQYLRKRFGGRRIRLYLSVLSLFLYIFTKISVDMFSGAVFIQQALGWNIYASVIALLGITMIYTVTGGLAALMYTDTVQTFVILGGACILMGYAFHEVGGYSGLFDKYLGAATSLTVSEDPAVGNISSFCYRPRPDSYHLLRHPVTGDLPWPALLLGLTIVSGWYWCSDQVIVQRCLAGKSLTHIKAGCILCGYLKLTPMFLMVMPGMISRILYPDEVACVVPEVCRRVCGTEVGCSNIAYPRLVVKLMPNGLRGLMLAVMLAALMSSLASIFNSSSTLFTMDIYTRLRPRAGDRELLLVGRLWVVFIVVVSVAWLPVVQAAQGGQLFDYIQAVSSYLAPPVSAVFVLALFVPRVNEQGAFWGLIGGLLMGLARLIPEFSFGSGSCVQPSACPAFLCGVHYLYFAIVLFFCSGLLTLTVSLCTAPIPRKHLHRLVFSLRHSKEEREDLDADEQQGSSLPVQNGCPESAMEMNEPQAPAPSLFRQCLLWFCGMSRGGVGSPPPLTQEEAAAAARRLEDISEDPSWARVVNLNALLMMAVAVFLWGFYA
Assay overview: Inhibition of human SGLT2 expressed in COS1 cells assessed as [14C]methyl-alpha-D-glucopyranoside uptake
Please note pIC50 is a logarithmic value: minus log10 of concentration in mol/L. Answer with that number alone.

Molecule	Assay target	pIC50
C=C(C)C(CC=C(C)C)Cc1c(O)cc(OC)c2c1O[C@H](c1ccc(O)cc1O)CC2=O (some centres not stated)	Sodium/glucose cotransporter 2 (Homo sapiens, UniProt P31639)	5.77

Query block: Query (molecule): C=C(C)[C@H](CC=C(C)C)Cc1c(O)cc(O)c2c1O[C@H](c1ccc(O)cc1O)CC2=O ; field requested: pIC50
Result block: 5.39

###

Assay target: Sodium/glucose cotransporter 2 (Homo sapiens) (UniProt P31639)
Assay overview: Inhibition of human SGLT2 expressed in COS1 cells assessed as [14C]methyl-alpha-D-glucopyranoside uptake at 50 uM
Format: cell-based
Measurement setup: COS-1
Entries annotated with measured inhibition
Your answer is read as %, so omit the unit and give the number.

Molecule	Assay target	inhibition / %
C=C(C)[C@H](CC=C(C)C)Cc1c(O)cc(O)c2c1O[C@H](c1ccc(O)cc1O)CC2=O	Sodium/glucose cotransporter 2 (Homo sapiens) (UniProt P31639)	100

Consider the record given below.
Query block: For Sodium/glucose cotransporter 2 (Homo sapiens) (UniProt P31639), provide inhibition of C=C(C)C(CC=C(C)C)Cc1c(O)cc(OC)c2c1O[C@H](c1ccc(O)cc1O)[C@H](O)C2=O (stereo partly drawn) please.
Result block: 87.3

###

inhibition by entry:
Assay target: Sodium/glucose cotransporter 1 (Homo sapiens)
Assay overview: Inhibition of human SGLT1 expressed in COS1 cells assessed as [14C]methyl-alpha-D-glucopyranoside uptake at 50 uM
Assay type: cell-based
Measurement setup: COS-1

Observe how each entry below is paired with its result.
COc1ccc2c(c1)OC[C@H]1c3cc4c(cc3O[C@@H]21)OCO4 < 25%
COc1ccc(-c2coc3cc(O)ccc3c2=O)cc1 < 25%

Let's switch to this molecule now.
Query block: Fill in: inhibition of Oc1ccc2c(c1)OC[C@H]1c3cc4c(cc3O[C@@H]21)OCO4 is ___
Result block: < 25%
